# Experimental context: in ethylene glycol, 318.19 K
Parameter measured: solubility (mole fraction)
The reply should be a number, written without any unit.

So what does the record say about solubility (mole fraction) for C[N+](C)(C)CC(=O)[O-] ? 0.167

* * *

# Experimental context: in acetic acid, 297.84 K
Parameter measured: solubility (mole fraction)
Provide a numeric answer; units are not to be included.

Reported solubility (mole fraction) for C[N+](C)(C)CC(=O)[O-] : what is it? 0.239

* * *

# Experimental context: in isopentanol, 302.72 K
Parameter measured: solubility (mole fraction)
Give a plain numeric answer without units written out.

Please give the measured solubility (mole fraction) for this compound: C[N+](C)(C)CC(=O)[O-] 0.000316

* * *

# Experimental context: in n-pentanol, 323.02 K
Parameter measured: solubility (mole fraction)

Give its solubility (mole fraction) value. Item: C[N+](C)(C)CC(=O)[O-] 0.000822

* * *

# Experimental context: in acetic acid, 333.12 K
Parameter measured: solubility (mole fraction)

Quick check: solubility (mole fraction) of C[N+](C)(C)CC(=O)[O-] ? 0.344

* * *

# Experimental context: in DMSO, 318.16 K
Parameter measured: solubility (mole fraction)

// lookup solubility (mole fraction) for C[N+](C)(C)CC(=O)[O-] 0.00253

* * *

# Experimental context: in n-pentanol, 309.45 K
Parameter measured: solubility (mole fraction)
Reply briefly: the number, and no unit.

Consider the molecule shown here: C[N+](C)(C)CC(=O)[O-] What is its recorded solubility (mole fraction)? 0.000523

* * *

# Experimental context: in n-pentanol, 299.59 K
Parameter measured: solubility (mole fraction)
Reply with the value as a number alone.

Fill blank: measured solubility (mole fraction) of the compound C[N+](C)(C)CC(=O)[O-] is ____. 0.000368

* * *

# Experimental context: in acetic acid, 328.87 K
Parameter measured: solubility (mole fraction)

Field request: solubility (mole fraction) | item: C[N+](C)(C)CC(=O)[O-] 0.327

* * *

# Experimental context: in isopentanol, 318.23 K
Parameter measured: solubility (mole fraction)
Just the number.

Please report the recorded solubility (mole fraction) for C[N+](C)(C)CC(=O)[O-] . 0.000556

* * *

# Experimental context: in DMSO, 313.2 K
Parameter measured: solubility (mole fraction)
Could you respond with only the numeric value?

Please report the recorded solubility (mole fraction) for C[N+](C)(C)CC(=O)[O-] . 0.00219

* * *

# Experimental context: in n-pentanol, 313.8 K
Parameter measured: solubility (mole fraction)
Respond with the number and no other words.

Quick one: solubility (mole fraction) of C[N+](C)(C)CC(=O)[O-] ? 0.000609

* * *

# Experimental context: in ethylene glycol, 314.59 K
Parameter measured: solubility (mole fraction)
Number only, please.

Data request, read-out solubility (mole fraction), for C[N+](C)(C)CC(=O)[O-] 0.161

* * *

# Experimental context: in ethylene glycol, 292.46 K
Parameter measured: solubility (mole fraction)
Just the number, please, no unit after it.

What value of measured solubility (mole fraction) is listed for C[N+](C)(C)CC(=O)[O-] ? 0.117

* * *

# Experimental context: in ethylene glycol, 323.98 K
Parameter measured: solubility (mole fraction)
# print the numeric value only

Which solubility (mole fraction) value is on record for C[N+](C)(C)CC(=O)[O-] ? 0.183

* * *

# Experimental context: in acetic acid, 292.83 K
Parameter measured: solubility (mole fraction)
API note: the answer field is a bare number with no unit suffix.

Look up solubility (mole fraction): C[N+](C)(C)CC(=O)[O-] 0.23

* * *

# Experimental context: in DMSO, 327.87 K
Parameter measured: solubility (mole fraction)
I only need the number, thanks.

Entry C[N+](C)(C)CC(=O)[O-] : reported solubility (mole fraction) = ? 0.00334

* * *

# Experimental context: in isopentanol, 286.47 K
Parameter measured: solubility (mole fraction)
Would you mind answering with just the numeric figure?

# solubility (mole fraction) lookup, item C[N+](C)(C)CC(=O)[O-] 0.000166

* * *

# Experimental context: in DMSO, 288.51 K
Parameter measured: solubility (mole fraction)
Form: value (number only, do not type unit).

Report solubility (mole fraction) for C[N+](C)(C)CC(=O)[O-] please. 0.001

* * *

# Experimental context: in isopentanol, 293.93 K
Parameter measured: solubility (mole fraction)
A bare number is all that is needed in reply.

State the recorded solubility (mole fraction) for this entry: C[N+](C)(C)CC(=O)[O-] 0.000225

* * *

# Experimental context: in DMSO, 292.73 K
Parameter measured: solubility (mole fraction)
// return a plain number; no unit text

What measured solubility (mole fraction) goes with C[N+](C)(C)CC(=O)[O-] ? 0.00116

* * *

# Experimental context: in acetic acid, 317.76 K
Parameter measured: solubility (mole fraction)
Form: value (number only, do not type unit).

If you can, please state the reported solubility (mole fraction) value of C[N+](C)(C)CC(=O)[O-] . 0.298

* * *

# Experimental context: in n-pentanol, 285.88 K
Parameter measured: solubility (mole fraction)
The answer should be a number; do not append a unit.

Quick check: solubility (mole fraction) of C[N+](C)(C)CC(=O)[O-] ? 0.000216

* * *

# Experimental context: in ethylene glycol, 283.42 K
Parameter measured: solubility (mole fraction)
Reply briefly: the number, and no unit.

Which solubility (mole fraction) value is on record for C[N+](C)(C)CC(=O)[O-] ? 0.102

* * *

# Experimental context: in ethylene glycol, 288.53 K
Parameter measured: solubility (mole fraction)
Give the value as a plain number.

Look up solubility (mole fraction) for this compound: C[N+](C)(C)CC(=O)[O-] 0.109

* * *

# Experimental context: in acetic acid, 302.28 K
Parameter measured: solubility (mole fraction)
I only need the number, thanks.

solubility (mole fraction) for C[N+](C)(C)CC(=O)[O-] ? 0.252

* * *

# Experimental context: in ethylene glycol, 328.33 K
Parameter measured: solubility (mole fraction)
Would you mind answering with just the numeric figure?

Using the record for C[N+](C)(C)CC(=O)[O-] , report its solubility (mole fraction). 0.192

* * *

# Experimental context: in DMSO, 305.16 K
Parameter measured: solubility (mole fraction)
In your answer, state the number alone without any accompanying words.

Look up solubility (mole fraction): C[N+](C)(C)CC(=O)[O-] 0.00172

* * *

# Experimental context: in ethylene glycol, 308.52 K
Parameter measured: solubility (mole fraction)
Could you respond with only the numeric value?

What value of solubility (mole fraction) has been recorded for this entry: C[N+](C)(C)CC(=O)[O-] 0.145

* * *

# Experimental context: in n-pentanol, 289.5 K
Parameter measured: solubility (mole fraction)

Recorded solubility (mole fraction) for C[N+](C)(C)CC(=O)[O-] , please? 0.000249

* * *

# Experimental context: in isopentanol, 307.37 K
Parameter measured: solubility (mole fraction)

Query (compound): C[N+](C)(C)CC(=O)[O-] ; field requested: solubility (mole fraction) 0.000378

* * *

# Experimental context: in n-pentanol, 318.18 K
Parameter measured: solubility (mole fraction)
Please give the numeric answer without any surrounding text.

# query: solubility (mole fraction) of entry C[N+](C)(C)CC(=O)[O-] 0.000705

* * *

# Experimental context: in n-pentanol, 304.38 K
Parameter measured: solubility (mole fraction)
Please give only the number in your answer, with no unit.

Item under review: C[N+](C)(C)CC(=O)[O-] . Reported solubility (mole fraction)? 0.000436

* * *

# Experimental context: in acetic acid, 312.79 K
Parameter measured: solubility (mole fraction)
Please reply with the value in numeric form only.

For the compound C[N+](C)(C)CC(=O)[O-] , what solubility (mole fraction) is on record? 0.279
